Sourced from the supplement of paper PMC12042874

Test: amyloid nucleation score (Sup35N fusion, yeast selection) (log enrichment); library NNK1; higher = more nucleation; inactive = no reads after selection;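 also: zero at mode of non-aggregating sequences after 7 days selection at 30°C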
recorded endpoint: amyloid nucleation score
Answers are plain numbers.

1. YMNLVLTDLAWSIWGG : 3.62
2. LILEHNFWVRISYELVPCFW : 1.15
3. YGINAVFLLIDLDERITDYL : 0.105

Go through the list and state amyloid nucleation score for each entry.
1. EVNLHLGCVWLVRLCVSDDG
2. ILRNDMSATVNM
3. LDSFTYKS
4. GISSSTLTFRTMWEDRCVEG
5. YGEPYV
6. GDCTLVMLINE

2.08
0.97
1.99
0.825
0.829
0.011

Batch request: amyloid nucleation score per item, same order as input.
1. FYQYVKCVIVPSVDALGVFS
2. PRCFYLMSGEMISTYECKRT

0.931
1.05

Take each entry in turn and give its amyloid nucleation score.
1. FRLTGTLALKFVVELTVRR
2. FAWSRAACFSIPVRISVSLG
3. VSRFFGNRRTNSNENTAGVA
4. LRVKSSGDLSLSGSFDCDV

1. 2.79
2. 1.14
3. -1.15
4. 0.199
